measurement notes: Nuclear factor erythroid 2-related factor 2/antioxidant responsive element (Nrf2/ARE) small molecule agonists: luciferase reporter gene qHTS assay in human keratinocytes (AID 1919969); also: nearly all actives have a fitted effect of over 35% in size
measurement setup: KeratinoSens HaCaT ARE-luciferase, luminescence, 24 h; series mostly up to 92.4 µM
Records with an inconclusive call do not appear. The source made the active and inactive calls. Calls follow the shape of the full dose curve.
Outcomes: Yes for active, No for inactive

- molecule: "O=C(c1ccccc1)C1CCC1"
  assigned class: "No"
- molecule: "Nc1ccc(F)cc1"
  assigned class: "No"
- molecule: "CCCCC1C(=O)N(c2ccccc2)N(c2ccc(O)cc2)C1=O (stereo not drawn)"
  assigned class: "Yes"
- molecule: "Cc1ccc(NC(=O)c2ccc(CN3CCN(C)CC3)cc2)cc1Nc1nccc(-c2cccnc2)n1"
  assigned class: "No"
- molecule: "Nc1ccccc1Nc1ccccc1"
  assigned class: "Yes"
- molecule: "COC(=O)Nc1nc2ccc(C(=O)c3cccs3)cc2[nH]1"
  assigned class: "Yes"
- molecule: "N#CCCOCCOCCC#N"
  assigned class: "No"
- molecule: "CC(C)c1ccccc1C(C)C"
  assigned class: "No"
- molecule: "CO/N=C(/C(=O)N[C@@H]1C(=O)N2C(C(=O)[O-])=C(C[n+]3ccn4ncccc43)CS[C@H]12)c1nsc(N)n1"
  assigned class: "No"
- molecule: "CC(C)NC[C@@H](O)COc1ccc(CC(N)=O)cc1"
  assigned class: "No"
- molecule: "COc1ccccc1OCCNCC(O)COc1cccc2[nH]c3ccccc3c12 (stereo not drawn)"
  assigned class: "No"
- molecule: "CO/N=C(/C(=O)N[C@@H]1C(=O)N2C(C(=O)OCOC(=O)C(C)(C)C)=C(C)CS[C@H]12)c1csc(N)n1"
  assigned class: "No"
- molecule: "CC(=O)c1ccc2c(c1)N(CCCN(C)C)c1ccccc1S2"
  assigned class: "No"
- molecule: "CCS(=O)(=O)c1ccc(OC)c(C(=O)OC)c1"
  assigned class: "No"
- molecule: "CC(=O)N(CC(O)CO)c1c(I)c(C(=O)NCCO)c(I)c(C(=O)NCC(O)CO)c1I (stereo not drawn)"
  assigned class: "No"
- molecule: "Cc1[nH]cnc1C[C@H]1CCc2c(C)c3ccccc3n2C1=O"
  assigned class: "No"
- molecule: "C/C=C/C(=O)C1=C(C)CCCC1(C)C"
  assigned class: "No"
- molecule: "CCCCCC/C=C\\CCCCCCCC(=O)O"
  assigned class: "No"
- molecule: "C[C@]12CC[C@@H]3c4ccc(O)cc4CC[C@H]3[C@@H]1CC[C@@H]2OC(=O)CCC1CCCC1"
  assigned class: "No"
- molecule: "C=Cc1ccc(O)c(OC)c1"
  assigned class: "Yes"
- molecule: "CC[C@]1(O)C[C@H]2CN(CCc3c([nH]c4ccccc34)[C@@](C(=O)OC)(c3cc4c(cc3OC)N(C=O)[C@H]3[C@@](O)(C(=O)OC)[C@H](OC(C)=O)[C@]5(CC)C=CCN6CC[C@]43[C@@H]65)C2)C1"
  assigned class: "Yes"
- molecule: "CC(C)Cn1cnc2c1c(=O)n(C)c(=O)n2C"
  assigned class: "No"
- molecule: "CC(C)c1ccccc1N"
  assigned class: "No"

* * *

measurement notes: Nuclear factor erythroid 2-related factor 2/antioxidant responsive element (Nrf2/ARE) small molecule agonists: luciferase reporter gene qHTS assay in human keratinocytes (AID 1919969); also: nearly all actives have a fitted effect of over 35% in size; also: potency is read from the fitted curve at half-maximal effect
measurement setup: KeratinoSens HaCaT ARE-luciferase, luminescence, 24 h; series mostly up to 92.4 µM
Results filed as inconclusive are left out. Activity calls are given as the source filed them. The call rests on the fitted dose curve.
measured property: Potency

- compound: "C[N+](C)(C)CCOC(N)=O"
  value observed: "inactive"
- compound: "Cc1ccc(N/N=c2\\c(=O)cc/c(=N\\Nc3ccc(S(=O)(=O)O)cc3)c2=O)c(C)c1"
  value observed: "inactive"
- compound: "CCOC(=O)OCC"
  value observed: "inactive"
- compound: "C(=C(c1ccccc1)c1ccccc1)c1ccccc1"
  value observed: "27.3 µM (active)"
- compound: "CC(C)OC(=O)c1cc(C(=O)OC(C)C)cc([N+](=O)[O-])c1"
  value observed: "inactive"
- compound: "Nc1nc(N)c2nc(CNc3ccc(C(=O)N[C@@H](CCC(=O)O)C(=O)O)cc3)cnc2n1"
  value observed: "inactive"
- compound: "NC(N)=NN=C(/C=C/c1ccc([N+](=O)[O-])o1)/C=C/c1ccc([N+](=O)[O-])o1"
  value observed: "6.68 µM (active)"
- compound: "CC(=O)c1ccc2c(c1)[C@H](NC(=O)c1ccc(F)cc1)[C@@H](O)C(C)(C)O2"
  value observed: "inactive"
- compound: "CC/C(=C(\\c1ccc(O)cc1)c1ccc(OCCN(C)C)cc1)c1ccccc1"
  value observed: "inactive"
- compound: "CCOC(=O)C(F)(F)F"
  value observed: "inactive"
- compound: "CNCCCCOc1ccccc1Cc1ccccc1"
  value observed: "inactive"
- compound: "CC(=O)c1ccc[nH]1"
  value observed: "inactive"
- compound: "CC[C@H]1OC(=O)[C@H](C)[C@@H](O[C@H]2C[C@@](C)(OC)[C@@H](O)[C@H](C)O2)[C@H](C)[C@@H](O[C@@H]2O[C@H](C)C[C@H](N(C)C)[C@H]2O)[C@](C)(O)C[C@@H](C)/C(=N\\OCOCCOC)[C@H](C)[C@@H](O)[C@]1(C)O"
  value observed: "inactive"
- compound: "COc1ccc(CCO)cc1"
  value observed: "inactive"
- compound: "CCC(C)OC(C)CC (stereo not drawn)"
  value observed: "inactive"
- compound: "Cc1nc([N+](=O)[O-])cn1-c1ccc([N+](=O)[O-])cc1"
  value observed: "inactive"
- compound: "CC(C)=CCC[C@](C)(O)[C@@H]1CC=C(C)CC1"
  value observed: "54.5 µM (active)"
- compound: "CC(C)N(c1ccccc1)C(C)C"
  value observed: "inactive"
- compound: "O=C(OCCc1ccccc1)c1ccccc1"
  value observed: "27.3 µM (active)"
- compound: "CCN1CCN(C(=O)N[C@@H](C(=O)N[C@@H]2C(=O)N3[C@@H]2SC(C)(C)[C@H]3C(=O)O)c2ccccc2)C(=O)C1=O"
  value observed: "inactive"
- compound: "C/C=C/C=C/C=O"
  value observed: "60.7 µM (active)"
- compound: "O=C(CCCN1CC=C(n2c(=O)[nH]c3ccccc32)CC1)c1ccc(F)cc1"
  value observed: "inactive"
- compound: "NCCCN(CCO)CCO"
  value observed: "inactive"
